Data provenance: PubChem BioAssay (Tox21)

Tested on: estrogen-related receptor alpha (ERRalpha) with PGC-1alpha coactivator, human
Assay: qHTS assay to identify small molecule antagonists of the estrogen related receptor signaling pathway with the pleiotropic PPARgamma coactivator (PGC) (AID 1224821);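 further: lower luminescence signal means antagonism of PGC/ERR signalling; nearly all actives have a fitted effect of over 50% in size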
Details: ERR/PGC reporter cell line, luciferase, antagonist mode; series mostly up to 46.1 µM
Results filed as inconclusive are left out. Calls of active or inactive are those of the source. The call rests on the fitted dose curve.
Measured Property: outcome

// solved cases for outcome follow
[[record]]
compound = "CN[C@H]1CC[C@@H](c2ccc(Cl)c(Cl)c2)c2ccccc21"
result = "inactive"

[[record]]
compound = "COc1ccc2c(c1)c(CC(=O)O)c(C)n2C(=O)c1ccc(Cl)cc1"
result = "inactive"

[[record]]
compound = "Nc1ccc(O)c([N+](=O)[O-])c1"
result = "inactive"

[[record]]
compound = "CC(C)NCC(O)c1ccc(O)c(O)c1 (configuration not stated)"
result = "inactive"


What does the data say about its outcome? Entry: Nc1c2c(nc3ccccc13)CCCC2
inactive

What does the data say about its outcome? Entry: CN(C)CCOC(C)(c1ccccc1)c1ccccn1 (configuration not stated)
inactive

What does the data say about its outcome? Entry: CCCCNC(=O)NS(=O)(=O)c1ccc(C)cc1
inactive

---

Experiment: qHTS assay to identify small molecule antagonists of the thyroid receptor (TR) signaling pathway - cell viability counter screen (AID 743064); further: nearly all actives have a fitted effect of over 50% in size
Settings: GH3.TRE-Luc viability, CellTiter-Fluor, 24 h; series mostly up to 70.3 µM
Records with an inconclusive call do not appear. Calls of active or inactive are those of the source. Calls follow the shape of the dose curve; as a rule, active = well fitted cell-killing curve with a large enough effect in the repeat runs; inconclusive = weak or mixed curves, or effect the other way; inactive = no such curve, though single readings can be large or run the other way.
Classes to choose from: active, inactive

Record excerpt, results attached:
[[record]]
structure_notation = "CCCCNC(=O)NS(=O)(=O)c1ccc(C)cc1"
answer_label = "inactive"

[[record]]
structure_notation = "Cc1ncc([N+](=O)[O-])n1C"
answer_label = "inactive"

[[record]]
structure_notation = "CC(O)(P(=O)(O)O)P(=O)(O)O"
answer_label = "inactive"

[[record]]
structure_notation = "CCCCCCCC(=O)OCC(COC(=O)CCCCCCC)OC(=O)CCCCCCC"
answer_label = "inactive"

[[record]]
structure_notation = "Nc1c2c(nc3ccccc13)CCCC2"
answer_label = "inactive"


Hi, do you know how O=S1(=O)OC(c2ccc(O)cc2)(c2ccc(O)cc2)c2ccccc21 came out in this test?
active

Hi, do you know how NS(=O)(=O)c1cc2c(cc1Cl)NCNS2(=O)=O came out in this test?
inactive

---

Experiment: A CellTox Green Cytotoxicity Assay to monitor cytotoxicity in HepG2 cells - 32 hour (AID 1224883); further: nearly all actives have a fitted effect of over 50% in size
Details: CellTox Green fluorescence; series mostly up to 76.8 µM
Source text: National Center for Advancing Translational Sciences [NCATS] NIH Chemical Genomics Center [NCGC] U.S. Environmental Protection Agency [EPA] National Institutes of Environmental Health Sciences [NIEHS] National Toxicology Program [NTP] Cell-based models are critical for drug discovery. […] Viable cells produce no appreciable increases in fluorescence. Therefore, the fluorescence signal produced by the binding interaction with dead cell DNA is proportional to cytotoxicity. […]
Inconclusive results are not listed. Calls of active or inactive are those of the source. Calls come from the whole dose curve; as a rule, active = well fitted activation curve with a large enough effect in the repeat runs; inconclusive = weak or mixed curves; inactive = flat fitted curve, though single readings scatter.
Classes to choose from: label 1 for active, label 0 for inactive

Record excerpt, results attached:
[[record]]
compound = "COc1ccc(C(Cl)=C(c2ccc(OC)cc2)c2ccc(OC)cc2)cc1"
answer_label = "label 0"

[[record]]
compound = "CC1(C)S[C@@H]2[C@H](NC(=O)[C@H](N)c3ccccc3)C(=O)N2[C@H]1C(=O)O"
answer_label = "label 0"

[[record]]
compound = "CCCCCCCC(=O)OCC(COC(=O)CCCCCCC)OC(=O)CCCCCCC"
answer_label = "label 0"

[[record]]
compound = "CCN(Cc1c(F)cccc1Cl)c1c([N+](=O)[O-])cc(C(F)(F)F)cc1[N+](=O)[O-]"
answer_label = "label 0"

[[record]]
compound = "Nc1ccc([N+](=O)[O-])cc1O"
answer_label = "label 0"

[[record]]
compound = "COc1ccc(CN(CCN(C)C)c2ccccn2)cc1"
answer_label = "label 0"

[[record]]
compound = "C1=CC2C3C=CC(C3)C2C1 (centres undefined)"
answer_label = "label 0"

[[record]]
compound = "CCc1nc(N)nc(N)c1-c1ccc(Cl)cc1"
answer_label = "label 0"

[[record]]
compound = "CC1(C)O[C@@H]2C[C@H]3[C@@H]4CCC5=CC(=O)C=C[C@]5(C)[C@@]4(F)[C@@H](O)C[C@]3(C)[C@]2(C(=O)CO)O1"
answer_label = "label 0"

[[record]]
compound = "NS(=O)(=O)c1cc2c(cc1Cl)NCNS2(=O)=O"
answer_label = "label 0"


Hi, do you know how Cc1cc(=O)oc2cc(O)ccc12 came out in this test?
label 0

Hi, do you know how OC[C@H]1O[C@H](O[C@]2(CCl)O[C@H](CCl)[C@@H](O)[C@@H]2O)[C@H](O)[C@@H](O)[C@H]1Cl came out in this test?
label 0

Hi, do you know how CC12CCC(CC1)C(C)(C)O2 came out in this test?
label 0
